For each record, write down the corresponding MC1R IC50.
measurement-target: human recombinant MC1R (CHO-K1 stable cell line, GenScript) (human, UniProt Q01726 1-317)
Sequence (Q01726 whole entry): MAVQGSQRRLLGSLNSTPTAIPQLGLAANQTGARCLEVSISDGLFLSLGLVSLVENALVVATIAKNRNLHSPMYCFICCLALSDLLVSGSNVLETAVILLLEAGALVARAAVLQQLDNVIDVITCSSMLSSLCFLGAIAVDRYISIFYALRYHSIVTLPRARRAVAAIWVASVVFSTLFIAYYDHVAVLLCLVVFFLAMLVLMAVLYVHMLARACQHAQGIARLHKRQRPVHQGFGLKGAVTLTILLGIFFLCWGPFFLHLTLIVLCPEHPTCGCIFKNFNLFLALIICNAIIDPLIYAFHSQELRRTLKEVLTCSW
assay: cell-based or functional assay
Starred links: 1 amine or outer side, 2 acyl side, 3 side chain; linkers in the order of their positions; H or OH if unused. Positions of bridges follow the written chain, without caps; N, C: chain ends. Non-standard residues stand in square brackets, D forms with d. Hgln = homoglutamine, NC(=O)CCC[C@H](N[*:1])C(=O)[*:2]; Lys(N3) = [N-]=[N+]=NCCCC[C@H](N)C(=O)O; Nle = CCCC[C@H](N)C(=O)O; Pra = C#CC[C@H](N)C(=O)O

Record excerpt, results attached:
Documented MC1R IC50 of Ac-EHFRWGC-NH2 (bridge N-7; not fully specified (bridges); printed as Cyclo(-Ac-Glu-His-Phe-Arg-Trp-Gly-Cys)-NH2) [KR-012] : 20 nM

Documented MC1R IC50 of {CH2CO}-EHFRWC-NH2 (thioether N-6; SMILES N=C(N)NCCC[C@@H]1NC(=O)[C@H](Cc2ccccc2)NC(=O)[C@H](Cc2c[nH]cn2)NC(=O)[C@H](CCC(=O)O)NC(=O)CSC[C@@H](C(N)=O)NC(=O)[C@H](Cc2c[nH]c3ccccc23)NC1=O) [KR-011] : 128 nM

Others:
Documented MC1R IC50 of Ac-[Nle][Lys(N3)]H[dF]RW[Pra][Hgln]-NH2 (triazole 2-7; not fully specified; printed as Ac-Nle-[Lys(N3)-His-DPhe-Arg-Trp-Pra]-Hgln-NH2) [KR-057] : 0.024 nM

Where these numbers come from: patent US20260152527A1
